- test description: Clearance in rat hepatocytes assessed per million cells
- Format: ADME, cell-based, Hepatocyte
- assay context: read-out: CLH
measured metric: hepatocyte CLint

- record smiles: "O=C(O)C[C@H]1CC[C@H](c2ccc(-c3ccc4c(c3)OCCN4C(=O)Nc3ccccc3)cc2)CC1"
  hepatocyte CLint: "9 µL/min/1e6 cells"

What measured hepatocyte CLint goes with O=C(O)C[C@H]1CC[C@H](c2ccc(-c3ccc4c(c3)CCN4C(=O)Nc3ccccc3)cc2)CC1 ?
13 µL/min/1e6 cells

---

For each record, write down the corresponding pIC50.
Sequence of the target: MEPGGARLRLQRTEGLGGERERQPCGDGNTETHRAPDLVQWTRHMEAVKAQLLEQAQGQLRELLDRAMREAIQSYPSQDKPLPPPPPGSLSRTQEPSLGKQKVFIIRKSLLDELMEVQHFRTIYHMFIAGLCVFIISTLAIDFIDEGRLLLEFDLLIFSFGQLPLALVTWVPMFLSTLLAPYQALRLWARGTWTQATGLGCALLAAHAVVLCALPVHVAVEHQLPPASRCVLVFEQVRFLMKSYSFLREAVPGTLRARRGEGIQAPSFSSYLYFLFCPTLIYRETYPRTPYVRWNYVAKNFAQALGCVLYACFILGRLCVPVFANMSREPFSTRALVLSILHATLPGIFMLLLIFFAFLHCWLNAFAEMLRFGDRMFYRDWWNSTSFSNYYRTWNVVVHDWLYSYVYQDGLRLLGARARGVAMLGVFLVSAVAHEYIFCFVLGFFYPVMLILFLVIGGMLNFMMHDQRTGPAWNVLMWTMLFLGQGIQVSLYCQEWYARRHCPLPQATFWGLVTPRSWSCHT
Answers are plain numbers, as −log10 of the molar value.

- record smiles: "O=C(O)C[C@H]1CC[C@H](c2ccc(-c3ccc4c(ccn4C(=O)Nc4ccccc4)c3)cc2)CC1"
  assay value: 5.52

What measured pIC50 goes with Cc1cc(C(=O)Nc2ccccc2)c2ccc(-c3ccc(OCC(C)(C)C(=O)O)nc3)cc2n1 ?
5.81
